Give measured MIC for each item. Keep answers brief.
# Tested on: E. faecium V286-17 (VRE)
# assay-explanation: microbe, parasite or virus in culture
# Type: cell-based, Enterococcus faecium
# measurement-conditions: V286-17 (VRE); read-out: MIC E. faecium V286-17 (VRE)
Square brackets hold non-standard residues; d marks the D form. Peptide text beside a SMILES is read from it.
Report as: number unit

Query: Entry CC[C@H](C)[C@H](NC(=O)[C@H](CCCCN)NC(=O)[C@H](CCCNC(=N)N)NC(=O)[C@H](CC(C)C)NC(=O)[C@H](Cc1c[nH]c2ccccc12)NC(=O)[C@H](Cc1c[nH]c2ccccc12)NC(=O)[C@@H](N)Cc1c[nH]c2ccccc12)C(=O)N[C@@H](Cc1c[nH]c2ccccc12)C(N)=O [WW291, WWWLRKIW] (H-WWWLRKIW-NH2; N-terminus and C-terminus assumed) : reported MIC = ?
Result: 4 µM

Query: Queued: CC(C)C[C@H](NC(=O)[C@H](Cc1c[nH]c2ccccc12)NC(=O)[C@H](Cc1c[nH]c2ccccc12)NC(=O)[C@@H](N)Cc1c[nH]c2ccccc12)C(=O)N[C@@H](CCCNC(=N)N)C(=O)N[C@@H](CCCNC(=N)N)C(=O)N[C@@H](CCCNC(=N)N)C(=O)N[C@@H](Cc1c[nH]c2ccccc12)C(N)=O [Horine, WWWLRRRW] (H-WWWLRRRW-NH2; N-terminus and C-terminus assumed)
Result: 2 µM

Query: Queued: CC[C@H](C)[C@H](NC(=O)[C@H](CCCCN)NC(=O)[C@@H](N)CCCNC(=N)N)C(=O)N[C@@H](Cc1c[nH]c2ccccc12)C(=O)N[C@@H](Cc1c[nH]c2ccccc12)C(=O)N[C@@H](Cc1c[nH]c2ccccc12)C(=O)N[C@@H](Cc1c[nH]c2ccccc12)C(=O)N[C@@H](CC(C)C)C(N)=O [WW295, RKIWWWWL] (H-RKIWWWWL-NH2; N-terminus and C-terminus assumed)
Result: 4 µM

Query: Queued: CC(C)C[C@@H](NC(=O)[C@@H](Cc1c[nH]c2ccccc12)NC(=O)[C@@H](Cc1c[nH]c2ccccc12)NC(=O)[C@H](N)Cc1c[nH]c2ccccc12)C(=O)N[C@H](CCCNC(=N)N)C(=O)N[C@H](CCCNC(=N)N)C(=O)N[C@H](CCCNC(=N)N)C(=O)N[C@H](Cc1c[nH]c2ccccc12)C(N)=O [D-horine] (H-[dW][dW][dW][dL][dR][dR][dR][dW]-NH2; N-terminus and C-terminus assumed)
Result: 4 µM

====

Give measured MIC SA (S. aureus USA300) for each item. Keep answers brief.
# System: S. aureus USA300
# assay-explanation: microbe, parasite or virus in culture
# Assay type: cell-based, Staphylococcus aureus
# measurement-conditions: USA300
Peptide text beside a SMILES is read from it.
Return type: number; implicit unit µM.

Query: Entry CC(C)C[C@H](NC(=O)[C@H](CC(C)C)NC(=O)[C@H](CCCCN)NC(=O)[C@H](CC(C)C)NC(=O)CNC(=O)[C@H](CC(C)C)NC(=O)[C@H](CO)NC(=O)[C@H](CC(C)C)NC(=O)[C@H](CC(C)C)NC(=O)[C@H](CO)NC(=O)CNC(=O)[C@H](CC(C)C)NC(=O)[C@@H](N)CC(C)C)C(N)=O [DFT532, LLGSLLSLGLKLL] (H-LLGSLLSLGLKLL-NH2; N-terminus and C-terminus assumed) : reported MIC SA (S. aureus USA300) = ?
Result: 1.6

Query: Queued: CC(C)C[C@H](NC(=O)[C@H](CC(C)C)NC(=O)[C@H](CCCCN)NC(=O)CNC(=O)[C@H](CC(C)C)NC(=O)[C@H](CC(C)C)NC(=O)[C@H](CO)NC(=O)[C@H](CC(C)C)NC(=O)[C@H](CC(C)C)NC(=O)[C@H](CC(C)C)NC(=O)[C@H](CO)NC(=O)[C@H](CC(C)C)NC(=O)CN)C(N)=O [DFT502, GLSLLLSLLGKLL] (H-GLSLLLSLLGKLL-NH2; N-terminus and C-terminus assumed)
Result: 1.6

Query: Queued: CC(C)C[C@H](NC(=O)[C@H](CC(C)C)NC(=O)[C@H](CCCCN)NC(=O)[C@H](CC(C)C)NC(=O)CNC(=O)[C@H](CC(C)C)NC(=O)[C@H](CCCCN)NC(=O)[C@H](CC(C)C)NC(=O)[C@H](CC(C)C)NC(=O)[C@H](CC(C)C)NC(=O)[C@H](CCCCN)NC(=O)[C@H](CC(C)C)NC(=O)[C@@H](N)CCCCN)C(N)=O [DFT565, KLKLLLKLGLKLL] (H-KLKLLLKLGLKLL-NH2; N-terminus and C-terminus assumed)
Result: 0.8

Query: Queued: CC(C)C[C@H](NC(=O)[C@H](CC(C)C)NC(=O)[C@H](CCCCN)NC(=O)CNC(=O)[C@H](CC(C)C)NC(=O)[C@H](CC(C)C)NC(=O)[C@H](CC(C)C)NC(=O)[C@H](CC(C)C)NC(=O)[C@H](CO)NC(=O)[C@H](CO)NC(=O)[C@H](CC(C)C)NC(=O)[C@H](CC(C)C)NC(=O)CN)C(N)=O [DFT505, GLLSSLLLLGKLL] (H-GLLSSLLLLGKLL-NH2; N-terminus and C-terminus assumed)
Result: 3.1

Query: Queued: CC(C)C[C@H](NC(=O)[C@H](CCCCN)NC(=O)CNC(=O)[C@H](CC(C)C)NC(=O)[C@H](CC(C)C)NC(=O)[C@H](CC(C)C)NC(=O)[C@H](CO)NC(=O)[C@H](CC(C)C)NC(=O)[C@H](CC(C)C)NC(=O)[C@H](CC(C)C)NC(=O)[C@H](CO)NC(=O)[C@H](CC(C)C)NC(=O)CN)C(N)=O [DFT504, GLSLLLSLLLGKL] (H-GLSLLLSLLLGKL-NH2; N-terminus and C-terminus assumed)
Result: 6.2

Query: Queued: CC(C)C[C@H](NC(=O)[C@H](CC(C)C)NC(=O)[C@H](CCCCN)NC(=O)[C@H](CC(C)C)NC(=O)CNC(=O)[C@H](CC(C)C)NC(=O)[C@H](CO)NC(=O)[C@H](CC(C)C)NC(=O)[C@H](CC(C)C)NC(=O)[C@H](CC(C)C)NC(=O)[C@H](CO)NC(=O)[C@H](CC(C)C)NC(=O)CN)C(N)=O [DFT503, GLSLLLSLGLKLL] (H-GLSLLLSLGLKLL-NH2; N-terminus and C-terminus assumed)
Result: 1.6

Recorded values, source patent US12173088B2.
